# Target: human serotonin transporter (hSERT) (Homo sapiens)
# Test description: biochemical
# Reported conditions: Table 1; [125I]RTI-55; bound given in μM; read-out: SERT binding affinity Ki
Experimental endpoint: Ki

Qu. I am curious: what Ki value has been reported for O=C(Nc1ccc(-c2ccccc2)cc1)N1CCN(CCCCOC(c2ccc(F)cc2)c2ccc(F)cc2)CC1 [Compound 8] ?
Ans. > 10 µM

----------
# Target: human dopamine transporter (hDAT) (Homo sapiens, UniProt Q01959)
# Sequence (Q01959 whole entry): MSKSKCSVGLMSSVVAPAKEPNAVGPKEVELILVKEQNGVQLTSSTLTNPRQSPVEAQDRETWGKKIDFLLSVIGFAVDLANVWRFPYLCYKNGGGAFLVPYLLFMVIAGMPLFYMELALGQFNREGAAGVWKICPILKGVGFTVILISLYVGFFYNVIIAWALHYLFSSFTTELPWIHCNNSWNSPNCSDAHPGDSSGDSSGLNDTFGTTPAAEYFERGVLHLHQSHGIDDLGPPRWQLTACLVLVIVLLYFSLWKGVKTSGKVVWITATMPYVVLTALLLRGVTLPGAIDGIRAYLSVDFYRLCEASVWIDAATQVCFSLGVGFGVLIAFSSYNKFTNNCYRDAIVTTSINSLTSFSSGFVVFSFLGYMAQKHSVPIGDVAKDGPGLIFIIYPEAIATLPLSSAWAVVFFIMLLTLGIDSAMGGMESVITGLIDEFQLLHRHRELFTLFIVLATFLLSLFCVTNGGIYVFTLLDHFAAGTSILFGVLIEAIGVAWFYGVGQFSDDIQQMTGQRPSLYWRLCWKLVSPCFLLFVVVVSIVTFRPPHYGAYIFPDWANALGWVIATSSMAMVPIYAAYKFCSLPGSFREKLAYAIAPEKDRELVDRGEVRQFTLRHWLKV
# Test description: cell-based
# Reported conditions: Table 1-1
Collected Discrimination Ratios [3H]DA reuptake/DAT binding values appear next to each entry.
Simply state the number, no unit and no words.

{"Line notation": "O=C(NCc1ccc(F)cc1)N1CCN(CCCCOC(c2ccc(F)cc2)c2ccc(F)cc2)CC1", "Measured": 0.1}
{"Line notation": "O=C(Nc1ccc(F)cc1)N1CCN(CCCCOC(c2ccc(F)cc2)c2ccc(F)cc2)CC1", "Measured": 0.2}
{"Line notation": "O=C(Nc1ccc(-c2ccccc2)cc1)N1CCN(CCCCOC(c2ccc(F)cc2)c2ccc(F)cc2)CC1", "Measured": 6.3}

Qu. I am curious: what Discrimination Ratios [3H]DA reuptake/DAT binding value has been reported for O=C(NS(=O)(=O)c1ccc(F)cc1)N1CCN(CCCCOC(c2ccc(F)cc2)c2ccc(F)cc2)CC1 ?
Ans. 0.6

Qu. I am curious: what Discrimination Ratios [3H]DA reuptake/DAT binding value has been reported for Fc1ccc(C(OCCCCN2CCN(C(=S)Nc3cccnc3)CC2)c2ccc(F)cc2)cc1 ?
Ans. 0.6

----------
# Target: human serotonin transporter (hSERT) (Homo sapiens)
# Test description: cell-based
# Reported conditions: Table 6; bound given in μM; read-out: Reuptake Inhibition [3H]5-HT IC50
Experimental endpoint: IC50

Qu. Form field - read-out: IC50; system: human serotonin transporter (hSERT) (Homo sapiens); submitted item: O=[N+]([O-])c1ccc(S(=O)(=O)N2CCN(CCCCOC(c3ccc(F)cc3)c3ccc(F)cc3)CC2)cc1 [Compound 42]
Ans. > 10 µM

----------
Collected Ki values appear next to each entry.
# Target: human norepinephrine transporter (hNET) (Homo sapiens)
# Test description: biochemical
# Reported conditions: Table 5; [125I]RTI-55; oxalate salts; read-out: NET binding affinity Ki
Param answer (str): number followed by unit.

{"Line notation": "CC(=O)c1ccc(N2CCN(CCCCOC(c3ccc(F)cc3)c3ccc(F)cc3)CC2)cc1", "Ki": "112 nM"}
{"Line notation": "Fc1ccc(C(OCCCCN2CCNCC2)c2ccc(F)cc2)cc1", "Ki": "3400 nM"}
{"Line notation": "Fc1ccc(C(OCCCCN2CCN(c3ccccn3)CC2)c2ccc(F)cc2)cc1", "Ki": "103 nM"}
{"Line notation": "COc1ccccc1N1CCN(CCCCOC(c2ccc(F)cc2)c2ccc(F)cc2)CC1", "Ki": "92 nM"}
{"Line notation": "O=C(c1ccccc1)N1CCN(CCCCOC(c2ccc(F)cc2)c2ccc(F)cc2)CC1", "Ki": "365 nM"}

Qu. I am curious: what Ki value has been reported for Fc1ccc(C(OCCCCN2CCN(c3ccccc3Cl)CC2)c2ccc(F)cc2)cc1 ?
Ans. 540 nM

Qu. I am curious: what Ki value has been reported for O=[N+]([O-])c1ccc(N2CCN(CCCCOC(c3ccc(F)cc3)c3ccc(F)cc3)CC2)cc1 ?
Ans. 239 nM

Qu. I am curious: what Ki value has been reported for Fc1ccc(C(OCCCCN2CCN(c3cccc(C(F)(F)F)c3)CC2)c2ccc(F)cc2)cc1 ?
Ans. 222 nM

Qu. I am curious: what Ki value has been reported for Fc1ccc(C(OCCCCN2CCN(Cc3ccc4c(c3)OCO4)CC2)c2ccc(F)cc2)cc1 ?
Ans. 55 nM

----------
# Target: human dopamine transporter (hDAT) (Homo sapiens, UniProt Q01959)
# Test description: biochemical
# Assay type: binding
# Reported conditions: Table 1
Experimental endpoint: Binding Ratios SERT/DAT

In the examples that follow, each entry is paired with its recorded Binding Ratios SERT/DAT.
{"Line notation": "O=C(Nc1ccc(F)cc1)N1CCN(CCCCOC(c2ccc(F)cc2)c2ccc(F)cc2)CC1", "Measured": 0.2}
{"Line notation": "Fc1ccc(C(OCCCCN2CCN(C(=S)Nc3cccnc3)CC2)c2ccc(F)cc2)cc1", "Measured": 6.4}
{"Line notation": "O=C(NCc1ccc(F)cc1)N1CCN(CCCCOC(c2ccc(F)cc2)c2ccc(F)cc2)CC1", "Measured": 0.2}
{"Line notation": "O=C(Nc1ccc(-c2ccccc2)cc1)N1CCN(CCCCOC(c2ccc(F)cc2)c2ccc(F)cc2)CC1", "Measured": ">149"}

Qu. Form field - read-out: Binding Ratios SERT/DAT; system: human dopamine transporter (hDAT) (Homo sapiens, UniProt Q01959); submitted item: O=C(NS(=O)(=O)c1ccc(F)cc1)N1CCN(CCCCOC(c2ccc(F)cc2)c2ccc(F)cc2)CC1
Ans. 9.5

----------
Collected Ki values appear next to each entry.
# Target: human serotonin transporter (hSERT) (Homo sapiens, UniProt P31645)
# Sequence (P31645 whole entry): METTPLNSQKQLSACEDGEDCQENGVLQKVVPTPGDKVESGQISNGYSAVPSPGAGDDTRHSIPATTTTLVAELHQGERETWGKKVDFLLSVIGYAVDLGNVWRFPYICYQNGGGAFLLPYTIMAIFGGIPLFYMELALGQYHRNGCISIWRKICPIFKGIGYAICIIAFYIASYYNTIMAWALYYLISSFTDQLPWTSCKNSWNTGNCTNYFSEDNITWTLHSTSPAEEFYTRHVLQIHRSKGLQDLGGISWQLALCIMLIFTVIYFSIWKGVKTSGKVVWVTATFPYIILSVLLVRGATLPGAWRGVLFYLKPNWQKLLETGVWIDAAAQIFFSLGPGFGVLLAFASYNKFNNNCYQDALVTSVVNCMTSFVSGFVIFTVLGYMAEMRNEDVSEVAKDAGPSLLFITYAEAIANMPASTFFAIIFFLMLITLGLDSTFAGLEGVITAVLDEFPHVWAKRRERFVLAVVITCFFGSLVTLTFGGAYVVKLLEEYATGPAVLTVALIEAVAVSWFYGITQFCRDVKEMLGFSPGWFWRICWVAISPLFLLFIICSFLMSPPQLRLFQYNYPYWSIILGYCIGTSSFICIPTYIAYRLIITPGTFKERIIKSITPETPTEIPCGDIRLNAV
# Test description: biochemical
# Reported conditions: Table 1; [125I]RTI-55; read-out: SERT binding affinity Ki
Express your answer in nM, writing the number without its unit.

{"Molecule": "O=C(NS(=O)(=O)c1ccc(F)cc1)N1CCN(CCCCOC(c2ccc(F)cc2)c2ccc(F)cc2)CC1 [Compound 7]", "Measured": 3160}
{"Molecule": "O=C(Nc1ccc(F)cc1)N1CCN(CCCCOC(c2ccc(F)cc2)c2ccc(F)cc2)CC1 [Compound 4]", "Measured": 14}
{"Molecule": "Fc1ccc(C(OCCCCN2CCN(C(=S)Nc3cccnc3)CC2)c2ccc(F)cc2)cc1 [Compound 6]", "Measured": 1080}

Then this molecule:
Qu. I am curious: what Ki value has been reported for O=C(NCc1ccc(F)cc1)N1CCN(CCCCOC(c2ccc(F)cc2)c2ccc(F)cc2)CC1 [Compound 5] ?
Ans. 275

----------
# Target: human serotonin transporter (hSERT) (Homo sapiens)
# Test description: cell-based
# Reported conditions: Reuptake Inhibition [3H]5-HT IC50, Table 6
Experimental endpoint: IC50 (nM)
Express your answer in nM, writing the number without its unit.

{"Compound": "O=C(c1ccccc1)N1CCN(CCCCOC(c2ccc(F)cc2)c2ccc(F)cc2)CC1", "IC50, nM": 2170}
{"Compound": "CC(=O)c1ccc(N2CCN(CCCCOC(c3ccc(F)cc3)c3ccc(F)cc3)CC2)cc1", "IC50, nM": 1230}
{"Compound": "Fc1ccc(C(OCCCCN2CCNC(c3ccccc3)C2)c2ccc(F)cc2)cc1 (stereo not shown)", "IC50, nM": 700}
{"Compound": "O=[N+]([O-])c1ccc(N2CCN(CCCCOC(c3ccc(F)cc3)c3ccc(F)cc3)CC2)cc1", "IC50, nM": 390}
{"Compound": "COc1ccccc1N1CCN(CCCCOC(c2ccc(F)cc2)c2ccc(F)cc2)CC1", "IC50, nM": 1230}

Qu. I am curious: what IC50 value has been reported for Fc1ccc(C(OCCCCN2CCN(Cc3ccc4c(c3)OCO4)CC2)c2ccc(F)cc2)cc1 ?
Ans. 3280

Qu. I am curious: what IC50 value has been reported for Fc1ccc(C(OCCCCN2CCN(c3ccccc3Cl)CC2)c2ccc(F)cc2)cc1 ?
Ans. 119

----------
Collected Ki values appear next to each entry.
# Target: 5-HT2C receptor (Rattus norvegicus)
# Construct: expressed in transfected cells; host or cells: NIH-3T3-P cells
# Sequence (P08909 33-460): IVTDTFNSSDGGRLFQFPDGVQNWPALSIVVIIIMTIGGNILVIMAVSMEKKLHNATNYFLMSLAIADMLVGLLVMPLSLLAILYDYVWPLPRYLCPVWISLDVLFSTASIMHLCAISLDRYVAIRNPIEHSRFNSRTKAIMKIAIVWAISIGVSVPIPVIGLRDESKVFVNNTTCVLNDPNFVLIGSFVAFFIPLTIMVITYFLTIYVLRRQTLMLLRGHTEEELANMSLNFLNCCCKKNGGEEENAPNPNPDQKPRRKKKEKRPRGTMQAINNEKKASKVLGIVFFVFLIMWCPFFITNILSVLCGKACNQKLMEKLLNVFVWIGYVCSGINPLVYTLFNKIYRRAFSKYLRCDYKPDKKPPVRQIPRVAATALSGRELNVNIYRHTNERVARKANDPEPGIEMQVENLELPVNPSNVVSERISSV
# Test description: 5-HT2C receptor binding, NIH-3T3-P cells, [3H]mesulergine
Express your answer in µM, writing the number without its unit.

{"Compound": "COc1ccccc1N1CCN(CCCCOC(c2ccc(F)cc2)c2ccc(F)cc2)CC1 [Compound 35]", "Target": "5-HT2C receptor (Rattus norvegicus)", "U": "µM", "Measured": 3}

Then this compound:
Qu. I am curious: what Ki value has been reported for Fc1ccc(C(OCCCCN2CCN(c3ccccn3)CC2)c2ccc(F)cc2)cc1 [Compound 39] ?
Ans. 3.45

----------
# Target: human norepinephrine transporter (hNET) (Homo sapiens, UniProt P23975)
# Sequence (P23975 whole entry): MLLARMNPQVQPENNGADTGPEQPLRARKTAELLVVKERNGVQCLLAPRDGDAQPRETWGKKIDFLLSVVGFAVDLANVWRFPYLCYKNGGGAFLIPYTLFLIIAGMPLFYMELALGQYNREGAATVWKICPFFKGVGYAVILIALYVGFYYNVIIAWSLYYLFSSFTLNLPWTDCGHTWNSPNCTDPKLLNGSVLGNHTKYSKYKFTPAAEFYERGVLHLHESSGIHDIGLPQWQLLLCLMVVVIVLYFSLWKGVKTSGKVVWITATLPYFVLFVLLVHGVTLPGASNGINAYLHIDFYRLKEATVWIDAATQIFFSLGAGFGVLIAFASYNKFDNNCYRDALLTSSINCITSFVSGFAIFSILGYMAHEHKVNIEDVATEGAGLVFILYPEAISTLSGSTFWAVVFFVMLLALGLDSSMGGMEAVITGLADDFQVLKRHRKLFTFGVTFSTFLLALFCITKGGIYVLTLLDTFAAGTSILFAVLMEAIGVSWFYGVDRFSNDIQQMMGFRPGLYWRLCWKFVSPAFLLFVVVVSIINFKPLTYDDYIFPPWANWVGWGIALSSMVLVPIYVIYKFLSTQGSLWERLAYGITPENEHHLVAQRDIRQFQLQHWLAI
# Test description: biochemical
# Reported conditions: Table 3; [125I]RTI-55; read-out: NET binding affinity Ki
Experimental endpoint: pKi
Kindly note that pKi refers to -log10 of the concentration in mol/L and answer with the value alone.

{"Compound": "O=C(NCc1ccc(F)cc1)NC1CCN(CCCCOC(c2ccc(F)cc2)c2ccc(F)cc2)CC1 [Compound 18]", "Target": "human norepinephrine transporter (hNET) (Homo sapiens, UniProt P23975)", "pKi": 7.37}

Then this compound:
Qu. Form field - read-out: pKi; system: human norepinephrine transporter (hNET) (Homo sapiens, UniProt P23975); submitted item: O=C(Nc1ccc(F)cc1)NC1CCN(CCCCOC(c2ccc(F)cc2)c2ccc(F)cc2)CC1 [Compound 17]
Ans. 6.37
